Data origin, for the record: patent US20250144067A1

Tested on: NCI-H292 lung cancer cells
Test: FDA drug screening, complete media vs cholesterol-free media without statin (TABLE 1)
Format: cell-based, human
Details: NCI-H292 cells, FDA drug library screen, complete media
Experimental readout: Complete
Number only, please.

Looking for the measured Complete of CCC(=O)NC[C@@H]1C[C@H]1c1cccc2c1CCO2 [Tasimelteon] , can you help?
0.8228

Looking for the measured Complete of COc1cc([C@@H]2c3cc4c(cc3[C@@H](O[C@@H]3O[C@@H]5CO[C@@H](C)O[C@H]5[C@H](O)[C@H]3O)[C@H]3COC(=O)[C@H]23)OCO4)cc(OC)c1OP(=O)(O)O [Etoposide phosphate] , can you help?
0.6917

Looking for the measured Complete of COc1ccccc1OCCNCC(O)COc1cccc2[nH]c3ccccc3c12 (stereo not shown) [Carvedilol] , can you help?
0.9579

Looking for the measured Complete of CCN(CC)C(=O)C1(c2ccccc2)CC1CN.Cl (stereo not drawn) [Milnacipran ((1S-cis)hydrochloride)] , can you help?
0.894
